- Study Conditions: in n-hexane, 313.15 K
Measurement Kind: solubility (mole fraction)

{"Smiles Structure": "CCc1cc(C(N)=S)ccn1", "Numeric Readout": "3.88e-05"}

[A] NC(=S)c1ccncc1
[B] NC(=S)c1ccccn1
# returns the entry with the larger solubility (mole fraction); inputs A and B Reply with the label of the item you choose. B
(B: 0.000518, A: 6.67e-06)

----------
- Study Conditions: in n-hexane, 293.15 K
Measurement Kind: solubility (mole fraction)

{"Smiles Structure": "NC(=S)c1ccccn1", "solubility (mole fraction)": 0.000199}

[1] CCc1cc(C(N)=S)ccn1
[2] NC(=S)c1ccncc1
Sort 1 and 2 by solubility (mole fraction) descending and give the first. Output the label that corresponds to your choice. 1
(1: 1.84e-05, 2: 2.97e-06)

----------
- Study Conditions: in n-hexane, 308.15 K
Measurement Kind: solubility (mole fraction)

{"Smiles Structure": "NC(=S)c1ccccn1", "Numeric Readout": 0.000404}

[A] NC(=S)c1ccncc1
[B] CCc1cc(C(N)=S)ccn1
Consider A and B . Which of these has its solubility (mole fraction) at a higher number? Bench note: the answer is the label of the chosen record. B

----------
- Study Conditions: in n-octanol, 308.15 K
Measurement Kind: solubility (mole fraction)

{"Smiles Structure": "NC(=S)c1ccccn1", "solubility (mole fraction)": 0.0183}

[A] CCc1cc(C(N)=S)ccn1
[B] NC(=S)c1ccncc1
Kindly compare A with B and tell me which has the lower solubility (mole fraction) figure. Refer to your chosen entry by its label in the reply. B

----------
- Study Conditions: in n-hexane, 303.15 K
Measurement Kind: solubility (mole fraction)

[A] CCc1cc(C(N)=S)ccn1
[B] NC(=S)c1ccccn1
[C] NC(=S)c1ccncc1
List by increasing solubility (mole fraction). Put the labels in the requested order and write them down. C, A, B
(C: 4.47e-06, A: 2.73e-05, B: 0.000325)

----------
- Study Conditions: in n-hexane, 298.15 K
Measurement Kind: solubility (mole fraction)

[A] CCc1cc(C(N)=S)ccn1
[B] NC(=S)c1ccccn1
[C] NC(=S)c1ccncc1
Lab note: rank above entries, solubility (mole fraction) ascending. Kindly provide the labels arranged according to the requested ordering. C, A, B
(C: 3.73e-06, A: 2.22e-05, B: 0.000248)

----------
- Study Conditions: in n-octanol, 298.15 K
Measurement Kind: solubility (mole fraction)

{"Smiles Structure": "CCc1cc(C(N)=S)ccn1", "solubility (mole fraction)": 0.00868}

[I] NC(=S)c1ccccn1
[II] NC(=S)c1ccncc1
Could you please tell me which of these two has the higher solubility (mole fraction): I or II ? Mark your answer with the label of the selected entry. I
(I: 0.012, II: 0.00431)

----------
- Study Conditions: in n-octanol, 303.15 K
Measurement Kind: solubility (mole fraction)

{"Smiles Structure": "CCc1cc(C(N)=S)ccn1", "solubility (mole fraction)": 0.0108}

[A] NC(=S)c1ccccn1
[B] NC(=S)c1ccncc1
Which one would you say has the larger solubility (mole fraction) value: A , or B ? API: response body contains the label of the selected item. A
(A: 0.0147, B: 0.00516)

----------
- Study Conditions: in n-octanol, 293.15 K
Measurement Kind: solubility (mole fraction)

{"Smiles Structure": "NC(=S)c1ccccn1", "Numeric Readout": 0.00952}

[a] NC(=S)c1ccncc1
[b] CCc1cc(C(N)=S)ccn1
Given the listed items, does a or b have the lesser reported solubility (mole fraction)? When you have decided, please share the label of that item. a

Every entry's value here was drawn from BigSolDB 2.1.
